TEST NAME: particle size (d50) and span by laser diffraction, Mastersizer E
Assay type: physicochemical
EXPERIMENTAL PARAMETERS: Example 2, subsequent batch, second suspension
PROPERTY NAME: span value of the distribution

COMPOUND	PROPERTY NAME	NUMERIC RESULT
CCC(=O)O[C@]1(C(=O)SCF)[C@H](C)C[C@H]2[C@@H]3C[C@H](F)C4=CC(=O)C=C[C@]4(C)[C@@]3(F)[C@@H](O)C[C@@]21C [fluticasone propionate]	span value of the distribution	1.24
